Reported normalized SmoIP GFP fluorescence values for the following molecules.
- System: Drosophila S2 cl14 SmoIP sensor cells
- ASSAY REMARKS: normalized SmoIP GFP fluorescence (untreated unstimulated = 0%, untreated Hh-stimulated = 100%); higher = more Smo activation sensor fluorescence
- RUN PARAMETERS: stimulation: Hh conditioned medium (+Hh); compound concentration: 2 uM; 24 h
Where a name gives a salt, the structure may show the parent alone.
# output: bare number, implied unit %

Examples with answers:
Clc1ccc2nsnc2c1NC1=NCCN1 [Tizanidine-hydrochloride] = 105
Cc1cc(N2CCOCC2)ccc1Nc1nc(NC2CCCCC2)c2[nH]cnc2n1 = 93.8
CC(=O)N1CCN(c2ccc(OCC3COC(Cn4ccnc4)(c4ccc(Cl)cc4Cl)O3)cc2)CC1 (stereo not drawn) = 109
COc1ccccc1N1CCN(CCN2C(=O)CC3(CCCC3)CC2=O)CC1 = 102
N#Cc1ccc2[nH]c(O)c(-c3ccc(CN4CCOCC4)cn3)c2c1 = 108
Cn1cc(-c2ccc3nnc(C(F)(F)c4ccc5ncccc5c4)n3n2)cn1 = 96.1
CC(C)(F)C[C@H](N[C@@H](c1ccc(-c2ccc(S(C)(=O)=O)cc2)cc1)C(F)(F)F)C(=O)NC1(C#N)CC1 = 110

Now turn to the next molecule.
GET /values?readout=normalized SmoIP GFP fluorescence&item= COc1cc2c(cc1OC)CN(CCc1ccc(NC(=O)c3cc(OC)c(OC)cc3NC(=O)c3cnc4ccccc4c3)cc1)CC2
120

====

Below, each of the molecules is paired with its reported normalized SmoIP GFP fluorescence value.
- System: Drosophila S2 cl14 SmoIP sensor cells
- ASSAY REMARKS: normalized SmoIP GFP fluorescence (untreated unstimulated = 0%, untreated Hh-stimulated = 100%); higher = more Smo activation sensor fluorescence
- RUN PARAMETERS: stimulation: mock conditioned medium (-Hh); compound concentration: 2 uM; 24 h
Where a name gives a salt, the structure may show the parent alone.
# number only, unit % dropped from output

Some molecules with recorded normalized SmoIP GFP fluorescence:
O=C(/C=C/c1ccc(O)c(O)c1)c1ccc(O)cc1O = 3.58
OCc1ccc(-c2ccc(-c3ccc(CO)s3)o2)s1 = -2.08
Cn1cc(-c2ccc3ncc(Cc4ccc5ncccc5c4)n3n2)cn1 = -6.97
CC(C)NCC(O)COc1cccc2ccccc12 (stereo not given) [propranolol-hcl] = -1.63

Switching to the query record.
Quick one: normalized SmoIP GFP fluorescence for CC(C)OC(=O)C1=CN(C(=O)c2ccc(F)c(F)c2)CC(C)(C)c2c1[nH]c1ccccc21 ?
12.5

====

Listed below: normalized SmoIP GFP fluorescence values for each entry.
- System: Drosophila S2 cl14 SmoIP sensor cells
- ASSAY REMARKS: normalized SmoIP GFP fluorescence (untreated unstimulated = 0%, untreated Hh-stimulated = 100%); higher = more Smo activation sensor fluorescence
- RUN PARAMETERS: stimulation: Hh conditioned medium (+Hh); compound concentration: 2 uM; 24 h
Where a name gives a salt, the structure may show the parent alone.
The figure you give is taken to be in %; do not add the unit.

O=C(Nc1ccc(S(=O)(=O)Nc2ccccc2Cl)c(Cl)c1)c1ccccn1 = 131
CN1C(C(=O)Nc2ccccn2)=C(O)c2sc(Cl)cc2S1(=O)=O = 129
O=[N+]([O-])c1ccc2c(c1)S(=O)(=O)C=C2 = 116
C[C@@H](c1ncncc1F)[C@](O)(Cn1cncn1)c1ccc(F)cc1F = 101
O=P(O)(O)C(O)(Cn1ccnc1)P(=O)(O)O = 98.3
Oc1cc(O)c(Cl)cn1 = 107

Lookup: normalized SmoIP GFP fluorescence / Drosophila S2 cl14 SmoIP sensor cells / COc1cccc(Nc2c(C(N)=O)cnc3c(C)cc(S(=O)(=O)c4cccc(C(=O)N(C)C)c4)cc23)c1
111

Short answer please: normalized SmoIP GFP fluorescence, Drosophila S2 cl14 SmoIP sensor cells, entry c1ccc(CC2=NCCN2)cc1 [tolazoline-hcl]
103

Form field - read-out: normalized SmoIP GFP fluorescence; system: Drosophila S2 cl14 SmoIP sensor cells; submitted item: COc1ccccc1N1CCN(CCN(C(=O)C2CCCCC2)c2ccccn2)CC1
125

Request body: readout normalized SmoIP GFP fluorescence, system Drosophila S2 cl14 SmoIP sensor cells, query C[C@@H]1CCN(C(=O)CC#N)C[C@@H]1N(C)c1ncnc2[nH]ccc12 . Return the value.
105

Param readout= normalized SmoIP GFP fluorescence; system= Drosophila S2 cl14 SmoIP sensor cells; entry= CCC(=O)NCC[C@@H]1CCc2ccc3c(c21)CCO3 ; returns value.
95.6

Can you look up normalized SmoIP GFP fluorescence on Drosophila S2 cl14 SmoIP sensor cells for N=C(N)NC(=N)NCCc1ccccc1 [Phenformin-hydrochloride] ?
151

// lookup normalized SmoIP GFP fluorescence | system=Drosophila S2 cl14 SmoIP sensor cells | key= CO[C@H]1C[C@@H]2CC[C@@H](C)[C@@](O)(O2)C(=O)C(=O)N2CCCC[C@H]2C(=O)O[C@H]([C@H](C)C[C@@H]2CC[C@@H](O)[C@H](OC)C2)CC(=O)[C@H](C)/C=C(\C)[C@@H](O)[C@@H](OC)C(=O)[C@H](C)C[C@H](C)/C=C/C=C/C=C/1C
26.9

normalized SmoIP GFP fluorescence of Nc1cc(C(F)(F)F)c(-c2cc(N3CCOCC3)nc(N3CCOCC3)n2)cn1 on Drosophila S2 cl14 SmoIP sensor cells?
68

Lookup: normalized SmoIP GFP fluorescence / Drosophila S2 cl14 SmoIP sensor cells / CCc1ccc(OCc2ccccc2C(=O)Nc2ccc3nc(C)cc(N)c3c2)cc1
164

====

Recorded normalized SmoIP GFP fluorescence for the following compounds
- Test system: Drosophila S2 cl14 SmoIP sensor cells
- ASSAY REMARKS: normalized SmoIP GFP fluorescence (untreated unstimulated = 0%, untreated Hh-stimulated = 100%); higher = more Smo activation sensor fluorescence
- RUN PARAMETERS: stimulation: Hh conditioned medium (+Hh); compound concentration: 2 uM; 24 h
Report the figure in % without appending any unit label.

Look up normalized SmoIP GFP fluorescence: Cn1ncnc1[C@H]1c2n[nH]c(=O)c3cc(F)cc(c23)N[C@@H]1c1ccc(F)cc1
107

I am curious: what normalized SmoIP GFP fluorescence value has been reported for COC1CCN(C(=O)c2cc(Cc3n[nH]c(=O)c4ccccc34)ccc2F)CC1 ?
103

Fill in the blank: the reported normalized SmoIP GFP fluorescence of COc1ccccc1Oc1c(NS(=O)(=O)c2ccc(C(C)(C)C)cc2)nc(-c2ncccn2)nc1OCCO [bosentan-hydrate] is ____.
109

Record request: normalized SmoIP GFP fluorescence value, item CCc1cccc2c3c([nH]c12)C(CC)(CC(=O)O)OCC3 (stereo not drawn)
104

// lookup normalized SmoIP GFP fluorescence for Cc1cc(C#N)cc(C)c1Oc1nc(Nc2ccc(C#N)cc2)nc(N)c1Br
93.3

State the recorded normalized SmoIP GFP fluorescence for this entry: Cc1cc(C)c(CNC(=O)c2cc(-c3ccc(CN4CCOCC4)cc3)cc3c2cnn3C2CCCC2)c(=O)[nH]1
104

====

- System: Drosophila S2 cl14 SmoIP sensor cells;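 note: flow cytometry read-out as median GFP intensity of gated cells, compounds added 30 min before Hh-conditioned or mock medium, mock-treated cells serving as unstimulated baseline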
- ASSAY REMARKS: normalized SmoIP GFP fluorescence (untreated unstimulated = 0%, untreated Hh-stimulated = 100%); higher = more Smo activation sensor fluorescence
- RUN PARAMETERS: stimulation: Hh conditioned medium (+Hh); compound concentration: 2 uM; 24 h
Below, each entry is listed with its recorded normalized SmoIP GFP fluorescence.
Numeric only. Scale: %

CCOc1cc([C@@H](CS(C)(=O)=O)N2C(=O)c3cccc(NC(C)=O)c3C2=O)ccc1OC = 142
CC(C)C[C@H](NC(=O)CNC(=O)c1cc(Cl)ccc1Cl)B1OC(=O)C(CC(=O)O)(CC(=O)O)O1 = 157
COc1cc2c(cc1OC)[C@@H]1Cc3ccc(OC)c(OC)c3CN1CC2 = 160
O=C(O)Cc1ccccc1Nc1c(Cl)cccc1Cl [Diclofenac-sodium] = 110
Cc1cc(C)nc(NS(=O)(=O)c2ccc(NC(=S)NC(=O)COc3ccc(Br)cc3Cl)cc2)n1 = 105
CC1(C)O[C@@H]2[C@@H](CO[C@@]3(COS(N)(=O)=O)OC(C)(C)O[C@@H]23)O1 [Topiramate] = 114

# get_value(readout='normalized SmoIP GFP fluorescence', item= CC(C)[C@H](C(=O)Nc1ccc(C(=O)NO)cc1)c1ccccc1 )
299

Look up normalized SmoIP GFP fluorescence: Nc1ccccc1NC(=O)c1ccc(CNc2nccc(-c3cccnc3)n2)cc1
214

Need normalized SmoIP GFP fluorescence, item Cc1cccc(C)c1OCC(=O)N[C@@H](Cc1ccccc1)[C@@H](O)C[C@H](Cc1ccccc1)NC(=O)[C@H](C(C)C)N1CCCNC1=O
117

Query (compound): CC1(COc2ccc3c(c2)ncn3-c2ccc3cccc(N4CCC(N)CC4)c3n2)COC1 ; field requested: normalized SmoIP GFP fluorescence
260

Look up normalized SmoIP GFP fluorescence for this compound: CN(C)C/C=C/C(=O)Nc1cc2c(Nc3ccc(F)c(Cl)c3)ncnc2cc1O[C@H]1CCOC1
121

For the compound CC(=O)N[C@@H](CS)C(=O)O , what normalized SmoIP GFP fluorescence is on record?
111

Can you look up the measured normalized SmoIP GFP fluorescence of CC(=O)O[C@]1(C(C)=O)CC[C@H]2[C@@H]3C=C(Cl)C4=CC(=O)[C@@H]5C[C@@H]5[C@]4(C)[C@H]3CC[C@@]21C [cyproterone-acetate] for me?
142
